# TARGET: human TLR9 (Homo sapiens, UniProt Q9NR96)
# Construct: host or cells: HEK-Blue cells
# Sequence (Q9NR96 26-1032): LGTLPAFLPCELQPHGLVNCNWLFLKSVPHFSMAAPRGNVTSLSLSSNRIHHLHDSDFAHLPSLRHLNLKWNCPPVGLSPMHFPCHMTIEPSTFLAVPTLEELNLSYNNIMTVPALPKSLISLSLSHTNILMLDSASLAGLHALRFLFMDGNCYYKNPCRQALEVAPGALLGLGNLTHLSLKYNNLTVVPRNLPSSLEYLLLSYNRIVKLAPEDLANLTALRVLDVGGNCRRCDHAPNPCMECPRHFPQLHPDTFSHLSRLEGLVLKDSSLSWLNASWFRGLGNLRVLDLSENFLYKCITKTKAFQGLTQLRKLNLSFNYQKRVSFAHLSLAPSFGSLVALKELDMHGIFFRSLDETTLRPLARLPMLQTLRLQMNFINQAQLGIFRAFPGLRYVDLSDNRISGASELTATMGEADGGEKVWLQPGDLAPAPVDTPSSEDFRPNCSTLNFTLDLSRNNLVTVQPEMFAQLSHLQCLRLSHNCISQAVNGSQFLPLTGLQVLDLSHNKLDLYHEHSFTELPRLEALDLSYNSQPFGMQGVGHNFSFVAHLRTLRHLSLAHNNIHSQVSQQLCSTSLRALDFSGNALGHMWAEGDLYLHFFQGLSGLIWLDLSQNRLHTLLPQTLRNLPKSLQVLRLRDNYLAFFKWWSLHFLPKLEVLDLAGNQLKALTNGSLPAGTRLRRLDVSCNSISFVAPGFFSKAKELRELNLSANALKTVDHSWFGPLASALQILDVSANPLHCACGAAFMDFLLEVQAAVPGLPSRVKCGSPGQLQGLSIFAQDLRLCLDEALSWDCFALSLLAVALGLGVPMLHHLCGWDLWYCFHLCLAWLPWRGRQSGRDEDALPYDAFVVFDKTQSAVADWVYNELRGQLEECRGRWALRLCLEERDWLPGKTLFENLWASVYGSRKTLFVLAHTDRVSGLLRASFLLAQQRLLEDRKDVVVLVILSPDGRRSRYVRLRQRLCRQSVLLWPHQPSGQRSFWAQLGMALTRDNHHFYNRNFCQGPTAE
# PROTOCOL_DESCRIPTION: TLR9 inhibition reporter assay (HEK-Blue SEAP)
# Type: cell-based
# ASSAY_CONTEXT: HEK-Blue cells overexpressing human TLR9, stimulated with ODN2006 5 nM, 22 hour incubation
# IC50 per entry

Cc1cc(-c2[nH]c3ccc(OCc4ccncc4)cc3c2C(C)C)ccn1 [Example 174] = > 50 µM
COc1ccc(-c2[nH]c3ccc(OCC(=O)NC[C@@H](F)C(C)(C)O)cc3c2C(C)C)cc1OC [Example 154] = > 50 µM
Cc1cc(-c2[nH]c3ccc(OCC4CCN(C5COC5)CC4)cc3c2C(C)C)cn2ncnc12 [Example 43] = > 50 µM

Next molecule, please.
Prompt line: API: value(readout= IC50, system= human TLR9 (Homo sapiens, UniProt Q9NR96), query= Cc1cc(-c2[nH]c3ccc(OCC(=O)NC[C@@H](F)C(C)(C)O)cc3c2C(C)C)ccn1 [Example 152] )
Response line: > 50 µM
